Test system: 885724-159-R-J1-PDC complex spheroid viability;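 note: spheroids exposed to agents for seven days before readout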
Assay: Anticancer human tumor 885724-159-R-J1-PDC patient-derived pancreatic adenocarcinoma cell line growth inhibition [GQUAD]
Settings: second compound 10 µM; first compound 0.00999 µM; stronger effect = lower value
Criterion: viability, T/C strictly under 50%. Met: Satisfied. Not met: Not satisfied.

>  <molecule>
CCc1c2c(nc3ccc(O)cc13)-c1cc3c(c(=O)n1C2)COC(=O)[C@]3(O)CC + Cc1cnc(CNC(=O)c2c(=O)c3ccc(N4CCCN(C)CC4)nc3n3c2sc2ccccc23)cn1

>  <assigned class>
Not satisfied

$$$$
>  <molecule>
Cc1[nH]c2ccccc2c1CCNCc1ccc(/C=C/C(=O)NO)cc1 + CN(C)c1ccc(Nc2c3ccc(NC(=O)CCN4CCCC4)cc3nc3cc(NC(=O)CCN4CCCC4)ccc23)cc1

>  <assigned class>
Not satisfied

$$$$
>  <molecule>
Cc1[nH]c2ccccc2c1CCNCc1ccc(/C=C/C(=O)NO)cc1 + Cc1cnc(CNC(=O)c2c(=O)c3ccc(N4CCCN(C)CC4)nc3n3c2sc2ccccc23)cn1

>  <assigned class>
Not satisfied

$$$$
>  <molecule>
CCc1c2c(nc3ccc(O)cc13)-c1cc3c(c(=O)n1C2)COC(=O)[C@]3(O)CC + Cc1[nH]c2ccc(F)cc2c1-c1nc2c3cccnc3c3ncccc3c2[nH]1

>  <assigned class>
Satisfied

$$$$
